Biological target: human 5-HT2C(VSV) (Homo sapiens, UniProt P28335, I156V/I160V/N158S)
Sequence (P28335 33-458 I156V/N158S/I160V limits assumed): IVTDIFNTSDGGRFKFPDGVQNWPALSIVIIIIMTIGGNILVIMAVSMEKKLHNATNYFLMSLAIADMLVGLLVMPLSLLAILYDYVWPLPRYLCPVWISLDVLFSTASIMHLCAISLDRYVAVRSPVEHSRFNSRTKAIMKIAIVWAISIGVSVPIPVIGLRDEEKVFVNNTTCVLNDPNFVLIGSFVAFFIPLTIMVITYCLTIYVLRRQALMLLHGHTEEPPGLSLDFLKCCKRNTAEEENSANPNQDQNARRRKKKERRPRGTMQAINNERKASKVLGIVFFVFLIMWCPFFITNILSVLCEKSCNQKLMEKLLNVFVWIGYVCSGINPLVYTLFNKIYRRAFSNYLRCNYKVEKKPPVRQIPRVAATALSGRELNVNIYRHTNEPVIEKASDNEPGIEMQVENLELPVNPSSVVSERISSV
Assay: cell-based
pEC50: −log10 of the molar value.
Consider the following molecules; for each one, report its pEC50.

Worked examples follow.
INSERT INTO measurements (molecule, endpoint_value) VALUES
  ('COc1ccc(F)c2c1c(CCN1CCOCC1)cn2C', '6.30 to 9.00'),
  ('COc1c(F)ccc2c1c(CCNc1cccc(N3CCN(C)CC3)c1)cn2C', '6.30 to 9.00');

Hey, can you go through the list below and give me pEC50 for every item?
1. CCn1cc(CCNCc2cccc(C(F)(F)F)c2)c2c(OCc3ccccc3)cc(F)cc21
2. CNCCc1cn(C)c2ccc(F)c(OCc3ccc(F)cc3)c12
3. CNCCc1cn(C)c2c(F)cc(-c3ccccc3)c(OC)c12
4. COc1ccc(-c2ccco2)c2c1c(CCN(C)C)cn2C
5. CN(C)CCc1cn(Cc2ccco2)c2c(F)ccc(OCc3ccccc3)c12
6. CCn1cc(CCN(C)C)c2c(OC)c(CCCN)cc(F)c21

[out]
5.00 to 6.30
6.30 to 9.00
6.30 to 9.00
5.00 to 6.30
6.30 to 9.00
6.30 to 9.00

Hey, can you go through the list below and give me pEC50 for every item?
1. CCn1cc(CCN2Cc3ccccc3C2)c2c(O)cc(F)cc21
2. CNCCc1cn(C)c2ccc(F)c(OCc3ccccc3-c3ccccc3)c12
3. CCn1cc(CCN(C)C)c2c(OCc3ccc(Cl)cc3)cc(F)cc21 [1-10b]
4. CNCCc1cn(C)c2ccc(F)c(OCc3cc(F)ccc3C)c12
5. CNCCc1cn(C)c2ccc(F)c(OCc3ccc(Cl)cc3)c12
6. COc1ccc(S(=O)(=O)c2ccccc2)c2c1c(CCN(C)C)cn2C
7. CCN(CC)C(=O)Cn1cc(CCN)c2c(O)c(F)ccc21
8. CCCn1cc(CCNC)c2c(OCc3ccc(C)cc3)c(F)ccc21

[out]
["5.00 to 6.30", "6.30 to 9.00", "5.00 to 6.30", "6.30 to 9.00", "6.30 to 9.00", "6.30 to 9.00", "> 5.00", "6.30 to 9.00"]
